# experimental target: CBP bromodomain (Homo sapiens, UniProt Q92793)
# Construct: docked complex of Compound 21 with CBP bromodomain
# Sequence (Q92793 1085-1192 limits assumed): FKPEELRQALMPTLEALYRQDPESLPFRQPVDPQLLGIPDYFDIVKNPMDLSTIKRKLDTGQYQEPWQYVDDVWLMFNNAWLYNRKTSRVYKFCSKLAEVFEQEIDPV
# protocol details: AlphaScreen in vitro binding assay with CBP
# setup conditions: AlphaScreen, isolated CBP bromodomain; means of at least two determinations
measurement name: IC50 (µM)
Please give a number only; it is taken to be in µM.

* CCCOc1ccc(CCc2nc3cc(-c4c(C)noc4C)ccn3c2NC2CCCCC2)cc1 | 0.633
* CCOc1ccc(CCc2nc3cc(-c4c(C)noc4C)ccn3c2NC2CCCCC2)cc1 | 0.214
* COc1ccc(-c2nc3cc(-c4c(C)noc4C)ccn3c2NC2CCCCC2)cc1 | 14.2

Now for another entry.
IN: Give IC50 for the following compound: COc1ccc(CCc2nc3cc(-c4c(C)noc4C)ccn3c2NCc2ccccc2)cc1
OUT: 1.92
